// provenance: the supplement of paper PMC4862054

- Test system: MFM-223
- assay-protocol: normalised response (% of control), CellTiter-Glo; higher = more viable cells (100 = DMSO, 0 = benzethonium chloride kill control)
- measurement-conditions: incubation time: 72 h
Can you tell me normalised response for the items I'm about to list?
Answers are plain numbers, in %.

For record CC(C)(C)c1cnc(CSc2cnc(NC(=O)C3CCNCC3)s2)o1 [SNS-032] (1 nM) the listed normalised response is 92

For record CC[C@@H]1C(=O)OC[C@@H]1Cc1cncn1C [Pilocarpine] (40 nM) the listed normalised response is 96.1

For record COc1cc(F)c(F)c(Nc2ccc(I)cc2F)c1NS(=O)(=O)C1(C[C@H](O)CO)CC1 [Refametinib] (10 nM) the listed normalised response is 87.9

Next:
For record Cn1cc(C2=Nc3cc(NC(=O)C(N)C4CCCCC4)cc4c3C2=CNNC4=O)cn1 (centres undefined) (1 nM) the listed normalised response is 86.7

====

- System: MDA-MB-436
- assay-protocol: drug sensitivity score (DSS), CellTiter-Blue viability (DSS (AUC-based score)); higher = stronger viability inhibition; extreme values may be limits of the assay
- measurement-conditions: incubation time: 72 h
Can you tell me drug sensitivity score for the items I'm about to list?

Completed entries (count: 2):
For record CC(C)(C)c1cnc(CSc2cnc(NC(=O)C3CCNCC3)s2)o1 [SNS-032] the listed drug sensitivity score is 15

For record C[C@]1(O)C[C@@H](c2nc(-c3ccc4ccc(-c5ccccc5)nc4c3)c3c(N)nccn32)C1 [OSI-906] the listed drug sensitivity score is 0

Below are 2 compounds. Give each one its drug sensitivity score.
1. Cn1cnc2c(F)c(Nc3ccc(Br)cc3Cl)c(C(=O)NOCCO)cc21 [Selumetinib]
2. C[C@]12CC[C@@H]3c4ccc(OC(=O)N(CCCl)CCCl)cc4CC[C@H]3[C@@H]1CC[C@@H]2O [Estramustine]

1: 0; 2: 0

====

- Test system: DU-4475
- assay-protocol: normalised response (% of control), CellTiter-Glo; higher = more viable cells (100 = DMSO, 0 = benzethonium chloride kill control)
- measurement-conditions: incubation time: 72 h
measurement-kind: normalised response (%)
Give bare numbers, in %.

Completed entries (count: 4):
For record COc1cc2c(cc1O)CC[C@@H]1[C@@H]2CC[C@]2(C)[C@@H](O)CC[C@@H]12 [2-methoxyestradiol] (100 nM) the listed normalised response is 101

For record Cn1cc(C2=Nc3cc(NC(=O)C(N)C4CCCCC4)cc4c3C2=CNNC4=O)cn1 (stereo not given) (100 nM) the listed normalised response is 95.1

For record CC(=O)O[C@@]12CO[C@@H]1C[C@H](O)[C@@]1(C)C(=O)[C@H](O)C3=C(C)[C@@H](OC(=O)[C@H](O)[C@@H](NC(=O)OC(C)(C)C)c4ccccc4)C[C@@](O)([C@@H](OC(=O)c4ccccc4)[C@H]21)C3(C)C [Docetaxel] (10 nM) the listed normalised response is 68.8

For record C[C@]12CC[C@@H]3c4ccc(OC(=O)N(CCCl)CCCl)cc4CC[C@H]3[C@@H]1CC[C@@H]2O [Estramustine] (100 nM) the listed normalised response is 93.3

Next:
For record CC(C)(C)c1cnc(CSc2cnc(NC(=O)C3CCNCC3)s2)o1 [SNS-032] (100 nM) the listed normalised response is 86.9

====

Can you tell me drug sensitivity score for the items I'm about to list?
- System: BT-474
- assay-protocol: drug sensitivity score (DSS), CellTiter-Glo (DSS (AUC-based score)); higher = stronger drug effect (viability inhibition or cytotoxicity); extreme values may be limits of the assay
- measurement-conditions: incubation time: 72 h
Answers are plain numbers.

Param item: Cn1cc(C2=Nc3cc(NC(=O)C(N)C4CCCCC4)cc4c3C2=CNNC4=O)cn1 (stereo unspecified) ; param system: BT-474; output drug sensitivity score: 6.46

Param item: "COc1cc2c(cc1O)CC[C@@H]1[C@@H]2CC[C@]2(C)[C@@H](O)CC[C@@H]12" ; param system: BT-474; output drug sensitivity score: 5.9

Param item: "Nc1nc2[nH]cnc2c(=S)[nH]1" ; param system: BT-474; output drug sensitivity score: 12

Param item: "CC(=O)c1c(C)c2cnc(Nc3ccc(N4CCNCC4)cn3)nc2n(C2CCCC2)c1=O" ; param system: BT-474; output drug sensitivity score: 4.46

Param item: "C[C@]12CC[C@@H]3c4ccc(OC(=O)N(CCCl)CCCl)cc4CC[C@H]3[C@@H]1CC[C@@H]2O" ; param system: BT-474; output drug sensitivity score: 0

Next:
Param item: "O=NN(CCCl)C(=O)NCCCl" ; param system: BT-474; output drug sensitivity score: 0

====

- Test system: CAL-85-1
- assay-protocol: normalised viability (% of control), CellTiter-Blue; higher = more viable cells (about 100 = DMSO control)
- measurement-conditions: incubation time: 72 h
measurement-kind: normalised viability (%)
Answers are plain numbers, in %.

Completed entries (count: 4):
For record CC(C)(C)c1cnc(CSc2cnc(NC(=O)C3CCNCC3)s2)o1 [SNS-032] (300 nM) the listed normalised viability is 9.41

For record O=P(O)(O)C(O)(Cn1ccnc1)P(=O)(O)O [Zoledronic acid] (300 nM) the listed normalised viability is 98.4

For record O=NN(CCCl)C(=O)NCCCl [Carmustine] (300 nM) the listed normalised viability is 94.2

For record Cc1sc2c(c1C)C(c1ccc(Cl)cc1)=N[C@@H](CC(=O)OC(C)(C)C)c1nnc(C)n1-2 [(+)JQ1] (300 nM) the listed normalised viability is 64.2

Next:
For record COc1cc2c(cc1O)CC[C@@H]1[C@@H]2CC[C@]2(C)[C@@H](O)CC[C@@H]12 [2-methoxyestradiol] (300 nM) the listed normalised viability is 99

====

- System: CAL-85-1
- assay-protocol: normalised viability (% of control), CellTiter-Blue; higher = more viable cells (about 100 = DMSO control)
- measurement-conditions: incubation time: 72 h
Can you tell me normalised viability for the items I'm about to list?
One number for each entry, in %.

Completed entries (count: 6):
For record Oc1ncnc2[nH]ncc12 [Allopurinol] (1000 nM) the listed normalised viability is 96.3

For record Cn1cc(C2=Nc3cc(NC(=O)C(N)C4CCCCC4)cc4c3C2=CNNC4=O)cn1 (configuration not stated) (1000 nM) the listed normalised viability is 64

For record CC[C@@H]1C(=O)OC[C@@H]1Cc1cncn1C [Pilocarpine] (4000 nM) the listed normalised viability is 89.5

For record COc1cc(F)c(F)c(Nc2ccc(I)cc2F)c1NS(=O)(=O)C1(C[C@H](O)CO)CC1 [RDEA119] (1000 nM) the listed normalised viability is 54.1

For record CC(=O)c1c(C)c2cnc(Nc3ccc(N4CCNCC4)cn3)nc2n(C2CCCC2)c1=O (1000 nM) the listed normalised viability is 98.9

For record CC1(C)CNc2cc(NC(=O)c3cccnc3NCc3ccncc3)ccc21 [Motesanib] (1000 nM) the listed normalised viability is 79.8

Next:
For record CC1=C2C[C@H]3[C@@H](CC=C4C[C@@H](O)CC[C@@]43C)[C@@H]2CC[C@]12O[C@@H]1C[C@H](C)CN[C@H]1[C@H]2C [Cyclopamine] (1000 nM) the listed normalised viability is 92.2

====

Can you tell me normalised viability for the items I'm about to list?
- Tested on: SK-BR-3
- assay-protocol: normalised viability (% of control), CellTiter-Blue; higher = more viable cells (about 100 = DMSO control)
- measurement-conditions: 1000 nM; incubation time: 72 h

Completed entries (count: 3):
For record "O=NN(CCCl)C(=O)NCCCl" the listed normalised viability is 123%

For record "CC1(C)CNc2cc(NC(=O)c3cccnc3NCc3ccncc3)ccc21" the listed normalised viability is 88.9%

For record "CC1=C2C[C@H]3[C@@H](CC=C4C[C@@H](O)CC[C@@]43C)[C@@H]2CC[C@]12O[C@@H]1C[C@H](C)CN[C@H]1[C@H]2C" the listed normalised viability is 123%

Below are 3 compounds. Give each one its normalised viability.
1. Cn1cc(C2=Nc3cc(NC(=O)C(N)C4CCCCC4)cc4c3C2=CNNC4=O)cn1 (stereo unspecified)
2. C[C@]1(O)C[C@@H](c2nc(-c3ccc4ccc(-c5ccccc5)nc4c3)c3c(N)nccn32)C1
3. CC(C)(C)c1cnc(CSc2cnc(NC(=O)C3CCNCC3)s2)o1

1: 13.8%; 2: 79.7%; 3: 5.34%

====

- System: Hs578T
- assay-protocol: normalised response (% of control), CellTiter-Glo; higher = more viable cells (100 = DMSO, 0 = benzethonium chloride kill control)
- measurement-conditions: incubation time: 72 h
Classify by measured normalised response: y if it is equal to or exceeds 90%, n if it is smaller.

Solved cases below.
For this compound, is measured normalised response 90% or higher? CC(C)(C)c1cnc(CSc2cnc(NC(=O)C3CCNCC3)s2)o1 [SNS-032] (10000 nM)
n

For this compound, is measured normalised response 90% or higher? O=NN(CCCl)C(=O)NCCCl [Carmustine] (10000 nM)
y

For this compound, is measured normalised response 90% or higher? CC(=O)O[C@@]12CO[C@@H]1C[C@H](O)[C@@]1(C)C(=O)[C@H](O)C3=C(C)[C@@H](OC(=O)[C@H](O)[C@@H](NC(=O)OC(C)(C)C)c4ccccc4)C[C@@](O)([C@@H](OC(=O)c4ccccc4)[C@H]21)C3(C)C [Docetaxel] (1000 nM)
n

For this compound, is measured normalised response 90% or higher? CC(=O)N(O)CCCCCNC(=O)CCC(=O)N(O)CCCCCNC(=O)CCC(=O)N(O)CCCCCN [Deferoxamine] (10000 nM)
n

Consider the additional compound presented here.
For this compound, is measured normalised response 90% or higher? Oc1ncnc2[nH]ncc12 [Allopurinol] (10000 nM)
y
